# Ki per entry for Cyclin-dependent kinase 2 (Homo sapiens)
The reply should be a number in µM, with the unit left off.

These solved cases illustrate the format of a correct answer.
>>> measurement("CC(C)(C)n1nc(-c2cccc(NC(=O)/C(C#N)=C/C=C/c3ccccc3)c2)c2c(=O)[nH]cnc21")
6.25
>>> measurement("CC(C)(C)n1nc(-c2cccc(NC(=O)/C(C#N)=C/c3ccccc3)c2)c2c(=O)[nH]cnc21")
2.2

// moving on: another record for Ki
Q: Please state recorded Ki (tested on Cyclin-dependent kinase 2 (Homo sapiens)) of CC(C)(C)n1nc(-c2cccc(NC(=O)/C(C#N)=C/c3ccccc3[N+](=O)[O-])c2)c2c(=O)[nH]cnc21
Result: 12.3
